Cited source for all entries: paper PMC4336329

molecular target: human ether-à-go-go-related gene (hERG) potassium channel (human, UniProt Q12809); assay: primary screen, population patch clamp on CHO cells stably expressing hERG; higher = less effect of the substance
Sequence (Q12809 whole entry, looked up): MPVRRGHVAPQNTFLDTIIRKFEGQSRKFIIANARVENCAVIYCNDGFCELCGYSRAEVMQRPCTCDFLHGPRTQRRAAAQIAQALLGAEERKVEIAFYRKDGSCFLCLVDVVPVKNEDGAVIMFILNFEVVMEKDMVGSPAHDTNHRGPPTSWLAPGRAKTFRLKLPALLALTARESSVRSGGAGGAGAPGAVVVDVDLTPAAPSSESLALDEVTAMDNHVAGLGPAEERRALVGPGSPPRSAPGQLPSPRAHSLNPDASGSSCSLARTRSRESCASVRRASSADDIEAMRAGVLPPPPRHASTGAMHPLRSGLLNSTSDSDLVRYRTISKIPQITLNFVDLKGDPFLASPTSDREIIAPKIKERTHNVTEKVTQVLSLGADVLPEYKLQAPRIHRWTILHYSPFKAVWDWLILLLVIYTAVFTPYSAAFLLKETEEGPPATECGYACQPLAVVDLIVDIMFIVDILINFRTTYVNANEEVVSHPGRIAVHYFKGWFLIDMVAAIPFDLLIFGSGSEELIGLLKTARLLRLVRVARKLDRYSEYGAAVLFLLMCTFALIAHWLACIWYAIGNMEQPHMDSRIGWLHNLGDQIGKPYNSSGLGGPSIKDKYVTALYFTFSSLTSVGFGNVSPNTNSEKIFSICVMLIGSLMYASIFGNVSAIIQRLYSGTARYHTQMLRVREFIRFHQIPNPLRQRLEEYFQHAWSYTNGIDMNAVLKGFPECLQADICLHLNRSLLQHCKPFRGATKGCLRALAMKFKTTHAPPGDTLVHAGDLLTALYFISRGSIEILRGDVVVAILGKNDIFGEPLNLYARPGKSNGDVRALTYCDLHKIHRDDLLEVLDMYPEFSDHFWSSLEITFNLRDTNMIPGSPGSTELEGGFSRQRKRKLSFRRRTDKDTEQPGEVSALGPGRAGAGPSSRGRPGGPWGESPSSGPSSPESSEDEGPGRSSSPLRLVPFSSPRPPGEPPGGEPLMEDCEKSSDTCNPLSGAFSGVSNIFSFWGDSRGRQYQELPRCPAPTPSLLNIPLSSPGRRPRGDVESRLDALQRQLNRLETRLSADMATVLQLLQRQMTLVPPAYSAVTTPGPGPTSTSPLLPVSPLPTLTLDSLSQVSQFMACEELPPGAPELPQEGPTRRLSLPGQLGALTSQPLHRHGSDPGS
The campaign covered roughly 310,000 compounds. About 14,000 (4.5%) showed an effect of 50% or more. Effects have a minus sign here. The list comes from a sample in which strong results are over-represented; it also holds close analogues and randomly drawn compounds.
Each entry gets No if its hERG current change (%, negative = inhibition) at 10uM stays under -10%, and Yes if its hERG current change (%, negative = inhibition) at 10uM is -10% or above.

Compound	Cat
Cc1ccc(C(c2nnnn2CCc2ccccc2)N2CCSCC2)cc1 (centres unmarked)	No
Cc1ccc(C(c2nnnn2Cc2ccccc2)N2CCN(Cc3ccccc3)CC2)cc1 (centres unmarked)	No
O=C(Cc1ccccc1)NCCC1=CCCCC1	Yes
CC(=O)Nc1nc(-c2ccccc2)nc(C)c1C(C)=O	Yes
Clc1ccc(C(c2nnnn2C2CCCC2)N2CCSCC2)cc1 (centres unmarked)	No

* * *

biological target: human ether-à-go-go-related gene (hERG) potassium channel (human); test: primary screen, population patch clamp on CHO cells stably expressing hERG; higher = less effect of the substance;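 note: peak tail current of the secondary pulse compared with the same well before compound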
Out of some 310,000 compounds screened, about 14,000 (4.5%) showed an effect of 50% or more. The effect is printed as a negative number. This excerpt belongs to a sample that is enriched for strong results.
Reported hERG current change (%, negative = inhibition) at 10uM is given for each of the following compounds.
Reported Endpoint: hERG current change (%, negative = inhibition) at 10uM (%)

Compound	Output Unit	Value Reported
COc1ccc(-c2ccc(CNCCCN3CCOCC3)o2)cc1Cl.Cl	%	6.83
COc1ccc(NC(=O)CN2CCN(CC(=O)Nc3ccc4c(c3)OCO4)CC2)cc1	%	-78.1
Cc1cc(Cl)ccc1OCC(=O)NC(=S)Nc1ccc(Cl)cn1	%	10.9
COc1ccc(S(=O)(=O)N2CCCN(CC(=O)Nc3ccc4c(c3)OCO4)CC2)cc1	%	-61.5
O=C(COC(=O)C1CC2C=CC1C2)Nc1cccc(S(=O)(=O)N2CCCCCC2)c1 (centres unmarked)	%	-23.2
Cc1ccc(S(=O)(=O)N2CCCCC2)cc1NC(=O)COC(=O)CNC(=O)c1cc(Cl)cc([N+](=O)[O-])c1	%	-51.4
CCOc1ccc(OCCC(=O)Nc2ccc3c(c2)OCO3)cc1	%	10.2
CCOc1ccc(NC(=O)CN2CCN(CC(=O)Nc3ccc4c(c3)OCO4)CC2)cc1	%	-76.1
Cc1ccc(NC(=O)COC(=O)C2CC3C=CC2C3)cc1S(=O)(=O)N1CCCCC1 (centres unmarked)	%	-7.32
COc1ccccc1N1CCN(CC(=O)Nc2ccc3c(c2)OCCO3)CC1	%	-6.03
O=C(Nc1nnc(S(=O)(=O)N2CCOCC2)s1)c1ccccc1Br	%	4.05
CCCCc1cn([C@@H](CCCCN)C(=O)N2CCNCC2)nn1.Cl	%	18.8
OCC(Br)CBr (centres unmarked)	%	23
Cc1ccc(NC(=O)COC(=O)CNC(=O)c2cccc([N+](=O)[O-])c2)cc1S(=O)(=O)N1CCCCCC1	%	-49.1
O=C(CCn1c(=O)c2ccccc2n(Cc2ccccc2)c1=O)NCc1ccc2c(c1)OCO2	%	-4.33
O=C(CN1CCOCC1)Nc1ccc2c(c1)OCO2	%	17.3
COc1ccccc1NC(=O)CN1CCN(CC(=O)Nc2ccc3c(c2)OCCO3)CC1	%	-34.4
Cc1ccc(CN2CC(C(=O)NCCC3=CCCCC3)CC2=O)cc1 (centres unmarked)	%	-19.6
COc1ccccc1NC(=O)CN1CCN(CC(=O)Nc2ccc3c(c2)OCO3)CC1	%	-72
O=C(COC(=O)CNC(=O)c1cccc([N+](=O)[O-])c1)Nc1cccc(S(=O)(=O)N2CCCCC2)c1	%	-30.8

* * *

target: human ether-à-go-go-related gene (hERG) potassium channel (human, UniProt Q12809); test: primary screen, population patch clamp on CHO cells stably expressing hERG; higher = less effect of the substance;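 note: peak tail current of the secondary pulse compared with the same well before compound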
The whole screen tested about 310,000 compounds, of which about 14,000 (4.5%) showed an effect of 50% or more. The effect is printed as a negative number. The list comes from a sample in which strong results are over-represented; it also holds close analogues and randomly drawn compounds.
Reported Endpoint: hERG current change (%, negative = inhibition) at 10uM (%)

Structure Notation	Value Reported
COc1ccc(CCn2c(-c3ccccc3)nc3c(c(=O)c4ccccc4n3C)c2=O)cc1	11.3
COc1ccc(Cn2c(C)nc3c(c(=O)c4ccccc4n3C)c2=O)cc1	-44.5
O=C(Nc1ccc(Cl)c([N+](=O)[O-])c1)c1cnccn1	-10.4
COc1ccc(CCn2c(C)nc3c(c(=O)c4ccccc4n3C)c2=O)cc1	-61.4
COc1ccc(CCn2c(C(C)C)nc3oc4ccccc4c(=O)c3c2=O)cc1	-75.3

* * *

Catalogue of compounds with associated hERG current change (%, negative = inhibition) at 10uM
biological target: human ether-à-go-go-related gene (hERG) potassium channel (human, UniProt Q12809); assay: primary screen, population patch clamp on CHO cells stably expressing hERG; higher = less effect of the substance;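 note: peak tail current of the secondary pulse compared with the same well before compound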
About 14,000 (4.5%) of roughly 310,000 compounds showed an effect of 50% or more. Effects have a minus sign here. Many of the other results were omitted from the sample, so strong results are more common in it than they were.
Reported Endpoint: hERG current change (%, negative = inhibition) at 10uM (%)

Compound	Value Reported
Cc1nnc(C)c2c(C)n(-c3ccc(Cl)c(N)c3)c(C)c12	-45
CCOc1ccc(NC(=S)NC(=O)Cc2ccccc2)cc1	25.5
O=C(CN1CCN(Cc2ccccc2Cl)CC1)N/N=C/c1cccs1	-20.4
O=C(NCCc1cn2ccccc2n1)c1cc(COc2ccc3ncccc3c2)on1	-65.7
CCOc1cccc2sc(Cl)nc12	13.7
O=C(Cc1c[nH]c2ccccc12)NCc1ccc2c(c1)OCO2	19.4
CCc1ccccc1OCC(=O)OCC(=O)Nc1cc(C)on1	-2.74
Cc1csc(=O)n1CC(=O)OC(C)C(=O)Nc1ccc(F)c(F)c1F (stereo not shown)	-4.29
Cc1cccc(-c2nnc(SCC#N)n2C)c1	13.2
O=C(CN1CCN(Cc2ccc(Cl)cc2)CC1)N/N=C/c1ccncc1	-80.1
Cc1cccc(-c2nnc(SCC#N)n2-c2cccc(Cl)c2)c1	-62.5
CCCCNC(=O)N(O)C1N(CCCC)C(=O)N(CC(=O)OC)C1(C)C (stereo not shown)	20
COc1ccc(/C=N/NC(=O)c2ccc3nc[nH]c3c2)cc1OC	20.7
O=C(CN1CCN(Cc2ccccc2)CC1)N/N=C/c1cccs1	-22.9
Cc1cc(C)nc(SCc2nnc(SCC#N)n2-c2cccc(Cl)c2)n1	-17.6
Cc1cccc(-c2nnc(SCC#N)n2-c2ccccc2)c1	-54.7
Cc1cc(C)n(CCNC(=O)c2cc(COc3ccc4ncccc4c3)on2)n1	-3.15
COc1ccc(-c2cc(=O)oc3c(C)c(OCC(=O)Nc4cccnc4)ccc23)cc1	-11.6
Cc1cc(C(=O)NNc2c(Cl)cccc2Cl)no1	3.46
COc1cccc(NC(=O)CSc2nnc3c(n2)[nH]c2ccc(C)cc23)c1	8.36
COc1ccc(CCC(=O)OC(C)C(=O)c2ccc(C)cc2)cc1 (stereo not shown)	0.769
CCOc1ccc(C(=O)C(C)OC(=O)Cn2c(C)csc2=O)cc1 (stereo not shown)	-60.1

* * *

molecular target: human ether-à-go-go-related gene (hERG) potassium channel (human); assay: primary screen, population patch clamp on CHO cells stably expressing hERG; higher = less effect of the substance;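 note: peak tail current of the secondary pulse compared with the same well before compound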
Among all 310,000 compounds or so, about 14,000 (4.5%) showed an effect of 50% or more. Effects have a minus sign here. The sample holds strong results, similar compounds and a random draw of the others, so the mix is not that of the screen.
Reported Endpoint: hERG current change (%, negative = inhibition) at 10uM

Molecule	Value Reported
COC(CNC(=O)CCc1c(C)nc2c(-c3ccc(F)cc3)c(C)nn2c1C)OC	-21.8%
CC1c2ccccc2SC(CCCN(C)C)c2ccccc21.O=C(O)/C=C\C(=O)O (stereo not drawn)	-19.2%
CC(=O)O[C@@]12CO[C@@H]1C[C@H](OC1OCC(O)C(O)C1O)[C@@]1(C)C(=O)[C@H](O)C3=C(C)[C@@H](OC(=O)[C@H](O)[C@@H](NC(=O)c4ccccc4)c4ccccc4)C[C@@](O)([C@@H](OC(=O)c4ccccc4)C12)C3(C)C (stereo partly drawn)	-7.05%
Cc1nc2c(-c3ccccc3)c(C)nn2c(C)c1CCC(=O)N1CCOCC1	-33.9%
CCCCN(C(=O)c1cc(OC)c(OC)c(OC)c1)C1=CC2CCC(C1)N2C.Cl (stereo not drawn)	-20.2%
Cc1nc2c(-c3ccc(F)cc3)c(C)nn2c(C)c1CCC(=O)N1CCN(c2ccccn2)CC1	-69.5%
Cc1nc2c(-c3ccc(F)cc3)c(C)nn2c(C)c1CCC(=O)N1CCC2(CC1)OCCO2	-67.8%
Cc1nc2c(-c3ccc(F)cc3)c(C)nn2c(C)c1CCC(=O)NCCN1CCOCC1	-24.3%
CN(C)CCC1Sc2ccccc2Oc2ccccc21.O=C(O)C(=O)O (stereo not drawn)	-24.8%
Cc1nc2c(-c3ccc(F)cc3)c(C)nn2c(C)c1CCC(=O)N1CCC(Cc2ccccc2)CC1	-21.2%
COc1ccc(CNC(=O)CN2CCC(n3nnc4cc(F)ccc43)CC2)cc1	-68%
CCn1nnc(NC(=O)c2cc3ccccc3o2)n1	4.36%
C1CCC(OCCN2CCN(CCOC3CCCCC3)CC2)CC1	-37.1%
Cc1nc2c(-c3ccccc3)c(C)nn2c(C)c1CCC(=O)N1CCC2(CC1)OCCO2	-40.5%
O=C(c1ccc(NC(=O)C2(c3ccccc3)CCOCC2)cc1)N1CCOCC1	9.8%
Cc1nc2cc(-c3cccc(F)c3)nn2c(C)c1CCC(=O)N1CCC2(CC1)OCCO2	-37.5%
CN(C(=O)CSc1nnc(C2CC2)n1C1CC1)C1(C#N)CCCCC1	-5.85%
COc1ccc(C(=O)NNC(=O)CN2CCC(n3nnc4cc(F)ccc43)CC2)cc1	-18.4%
